Measured IC50 accompanies every entry in the list below.
assaySystem: CDK9/cyclin T1 (Homo sapiens, UniProt P50750)
Sequence (P50750 whole entry): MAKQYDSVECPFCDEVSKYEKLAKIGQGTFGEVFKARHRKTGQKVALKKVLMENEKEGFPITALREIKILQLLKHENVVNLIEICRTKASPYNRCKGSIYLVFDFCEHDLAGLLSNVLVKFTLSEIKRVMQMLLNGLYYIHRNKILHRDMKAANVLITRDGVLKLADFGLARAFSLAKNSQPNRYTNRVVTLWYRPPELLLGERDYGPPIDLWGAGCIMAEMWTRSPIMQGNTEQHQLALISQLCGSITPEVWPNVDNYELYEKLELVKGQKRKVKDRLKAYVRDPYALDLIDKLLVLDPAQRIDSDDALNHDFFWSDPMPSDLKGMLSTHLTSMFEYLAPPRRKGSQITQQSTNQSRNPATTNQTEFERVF
Sequence (O60563 whole entry partner): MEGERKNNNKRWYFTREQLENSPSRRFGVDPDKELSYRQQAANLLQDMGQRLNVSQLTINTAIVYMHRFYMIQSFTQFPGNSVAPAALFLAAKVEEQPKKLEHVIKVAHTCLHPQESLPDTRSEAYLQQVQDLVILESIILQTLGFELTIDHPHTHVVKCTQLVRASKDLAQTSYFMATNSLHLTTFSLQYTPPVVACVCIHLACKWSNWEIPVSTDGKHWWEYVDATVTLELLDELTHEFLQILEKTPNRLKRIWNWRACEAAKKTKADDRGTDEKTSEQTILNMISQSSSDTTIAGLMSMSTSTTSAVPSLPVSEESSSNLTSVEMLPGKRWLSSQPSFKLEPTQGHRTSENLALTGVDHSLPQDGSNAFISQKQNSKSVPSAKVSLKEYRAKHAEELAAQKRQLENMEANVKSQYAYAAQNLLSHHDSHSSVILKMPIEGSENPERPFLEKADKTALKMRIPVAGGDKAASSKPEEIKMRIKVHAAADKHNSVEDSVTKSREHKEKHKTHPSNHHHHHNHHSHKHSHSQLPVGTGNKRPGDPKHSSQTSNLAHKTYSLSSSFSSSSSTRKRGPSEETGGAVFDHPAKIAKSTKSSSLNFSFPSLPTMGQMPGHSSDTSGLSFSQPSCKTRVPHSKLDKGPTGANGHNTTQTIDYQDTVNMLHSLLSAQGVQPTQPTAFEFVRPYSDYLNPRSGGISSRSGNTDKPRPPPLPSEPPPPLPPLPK
protocol: CDK9 assay
Assay type: biochemical
studyConditions: Table 3 selectivity panel; read-out: Kinase specificity IC50 CDK9/T1
Phrase the answer as number then unit, nothing more needed.

- CC[C@@H](N)C(=O)Nc1nc(C)c(-c2ccnc(Nc3cccc([N+](=O)[O-])c3)n2)s1: 200 nM
- CNc1nc(C)c(-c2ccnc(Nc3ccc(N4CCOCC4)cc3)n2)s1: 8500 nM
- Cc1nc(NC(=O)[C@H](N)[C@@H](C)O)sc1-c1ccnc(Nc2cccc([N+](=O)[O-])c2)n1: 110 nM

Pending compound:
input: // lookup IC50 for CNc1nc(C)c(-c2ccnc(Nc3ccc(N4CCN(Cc5ccccc5)CC4)cc3)n2)s1
output: 1100 nM

---

assaySystem: CDK1/cyclin B (Homo sapiens, UniProt P06493)
Sequence (P06493 whole entry): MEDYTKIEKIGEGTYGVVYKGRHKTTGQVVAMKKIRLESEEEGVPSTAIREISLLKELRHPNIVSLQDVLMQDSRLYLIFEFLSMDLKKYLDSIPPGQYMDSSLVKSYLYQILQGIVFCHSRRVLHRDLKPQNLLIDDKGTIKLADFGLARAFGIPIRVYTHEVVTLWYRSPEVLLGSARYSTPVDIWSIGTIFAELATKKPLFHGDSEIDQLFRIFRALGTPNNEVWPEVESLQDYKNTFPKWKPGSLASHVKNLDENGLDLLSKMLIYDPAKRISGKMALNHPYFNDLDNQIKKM
Sequence (P14635 whole entry partner): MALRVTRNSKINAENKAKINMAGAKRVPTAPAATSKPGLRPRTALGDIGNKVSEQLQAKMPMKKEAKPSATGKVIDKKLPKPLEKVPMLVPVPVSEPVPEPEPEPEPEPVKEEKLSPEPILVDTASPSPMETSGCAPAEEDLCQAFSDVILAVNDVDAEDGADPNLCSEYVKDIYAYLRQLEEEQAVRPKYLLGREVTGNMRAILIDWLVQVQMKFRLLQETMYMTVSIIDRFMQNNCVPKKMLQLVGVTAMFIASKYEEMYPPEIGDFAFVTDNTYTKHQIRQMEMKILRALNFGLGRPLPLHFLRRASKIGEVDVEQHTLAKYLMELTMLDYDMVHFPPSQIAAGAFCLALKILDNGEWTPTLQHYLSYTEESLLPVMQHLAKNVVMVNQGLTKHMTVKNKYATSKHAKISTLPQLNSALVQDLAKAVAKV
protocol: Kinase assay CDK1/cyclin B
Format: biochemical
studyConditions: Table 3 selectivity panel; read-out: Kinase specificity IC50 CDK1/B1
measurementKind: IC50 (nM)
Write down the numeric answer in nM and omit the unit.

Consider the worked cases shown below.
* CNc1nc(C)c(-c2ccnc(Nc3ccc(N4CCN(Cc5ccccc5)CC4)cc3)n2)s1 [Compound 11] | 2400
* Cc1nc(NC(=O)[C@H](N)[C@@H](C)O)sc1-c1ccnc(Nc2cccc([N+](=O)[O-])c2)n1 [Compound 15] | 1600

Pending compound:
input: // lookup IC50 for CC[C@@H](N)C(=O)Nc1nc(C)c(-c2ccnc(Nc3cccc([N+](=O)[O-])c3)n2)s1 [Compound 16]
output: 2800

---

System: HT29
protocol: 72-h MTT cytotoxicity assay HT29
Type: cell-based
studyConditions: Homo sapiens, HT-29, 72 h, Table 5; Colon
measurementKind: pIC50
Just the number, please; pIC50 means minus log10 of the concentration in mol/L.

Consider the worked cases shown below.
- CNc1nc(C)c(-c2ccnc(Nc3ccc(N4CCN(Cc5ccccc5)CC4)cc3)n2)s1 [Compound 11]: 5.80
- CC[C@@H](N)C(=O)Nc1nc(C)c(-c2ccnc(Nc3cccc([N+](=O)[O-])c3)n2)s1 [Compound 16]: 6.52
- Cc1nc(N)sc1-c1ccnc(Nc2ccc(N3CCOCC3)cc2)n1 [Compound 1]: 5.96

Pending molecule:
input: // lookup pIC50 for Cc1nc(NC(=O)[C@H](N)[C@@H](C)O)sc1-c1ccnc(Nc2cccc([N+](=O)[O-])c2)n1 [Compound 15]
output: 6.30

---

assaySystem: CDK2/cyclin A (Homo sapiens, UniProt P24941)
protocol: Kinase assay CDK2/cyclin A
Format: biochemical
studyConditions: Table 2; read-out: Kinase Inhibition IC50 CDK2 cyclin A
Binary label based on IC50 with cut-off 1000 nM: below gives y, not below gives n.

Answered examples (8):
• CNc1nc(C)c(-c2ccnc(Nc3cccc(CNS(=O)(=O)C(F)(F)F)c3)n2)s1 = n
• CNc1nc(C)c(-c2ccnc(Nc3ccc(Cl)c(CO)c3)n2)s1 = n
• Cc1nc(N)sc1-c1ccnc(Nc2ccc(S(C)(=O)=O)cc2)n1 = y
• CNc1nc(C)c(-c2ccnc(Nc3cccc(CNC(C)=O)c3)n2)s1 = n
• CC(=O)NCc1cccc(Nc2nccc(-c3sc(C)nc3C)n2)c1 = y
• CCN(CC)CCNCCC(=O)Nc1nc(C)c(-c2ccnc(Nc3ccc(Cl)cc3)n2)s1 = n
• Cc1nc(NC(=O)CN2CCN(C(=O)OC(C)(C)C)CC2)sc1-c1ccnc(Nc2cccc([N+](=O)[O-])c2)n1 = n
• CCNc1nc(C)c(-c2ccnc(Nc3cccc(CNC(C)=O)c3)n2)s1 = y

input: A record lists Cc1nc(N2CCOCC2)sc1-c1ccnc(Nc2cccc(O)c2)n1 . Is its IC50 below 1000 nM?
output: n

---

assaySystem: CDK7/cyclin H (Homo sapiens)
Sequence (P50613 whole entry): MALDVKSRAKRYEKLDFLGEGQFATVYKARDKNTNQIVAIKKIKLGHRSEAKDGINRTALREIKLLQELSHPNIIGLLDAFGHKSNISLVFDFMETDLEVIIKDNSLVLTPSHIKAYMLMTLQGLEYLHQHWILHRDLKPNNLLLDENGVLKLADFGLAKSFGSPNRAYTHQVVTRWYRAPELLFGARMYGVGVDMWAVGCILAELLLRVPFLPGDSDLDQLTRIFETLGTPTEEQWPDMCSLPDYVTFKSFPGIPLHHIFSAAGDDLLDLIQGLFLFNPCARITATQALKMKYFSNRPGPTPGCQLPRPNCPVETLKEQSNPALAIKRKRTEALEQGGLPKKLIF
protocol: CDK7 assay
Assay type: biochemical
studyConditions: Table 2; read-out: Kinase Inhibition IC50 CDK7 cyclin H
measurementKind: IC50 (nM)
Write down the numeric answer in nM and omit the unit.

Consider the worked cases shown below.
• CNc1nc(C)c(-c2ccnc(Nc3ccc(OCCOC)c([N+](=O)[O-])c3)n2)s1 [Compound 77] = 1000
• CNc1nc(C)c(-c2ccnc(Nc3cccc(CNS(C)(=O)=O)c3)n2)s1 [Compound 83] = 370

input: // lookup IC50 for Cc1nc(N)sc1-c1ccnc(Nc2ccc(N3CCOCC3)cc2)n1 [Compound 1]
output: 30000

input: // lookup IC50 for Cc1nc(N)sc1-c1ccnc(Nc2cccc(S(C)(=O)=O)c2)n1 [Compound 84]
output: 430

input: // lookup IC50 for Cc1nc(C)c(-c2ccnc(Nc3ccc(N4CCN(CCCO)CC4)cc3)n2)s1 [Compound 8]
output: 970

input: // lookup IC50 for Cc1nc(C)c(-c2ccnc(Nc3ccc(N4CCNCC4)cc3)n2)s1 [Compound 6]
output: 1300

input: // lookup IC50 for Cc1c(-c2ccnc(Nc3ccc(N4CCOCC4)cc3)n2)sc(=O)n1C [Compound 92]
output: 2800

input: // lookup IC50 for Cc1c(-c2ccnc(Nc3ccc(N4CCN(C)CC4)cc3)n2)sc(=O)n1C [Compound 93]
output: 360

input: // lookup IC50 for Cc1nc(C)c(-c2ccnc(Nc3ccc(NC(=O)CN4CCCC4)cc3)n2)s1 [Compound 53]
output: 440

---

assaySystem: CDK2/cyclin A (Homo sapiens)
protocol: Kinase assay CDK2/cyclin A
Assay type: biochemical
studyConditions: Table 2; read-out: Kinase Inhibition IC50 CDK2 cyclin A
measurementKind: pIC50
Just the number, please; pIC50 means minus log10 of the concentration in mol/L.

• Cc1nc(C)c(-c2ccnc(Nc3ccc(S(C)(=O)=O)cc3)n2)s1 = 9.00
• COc1ccc(Nc2nccc(-c3sc(NC(=O)CCN4CCN(C)CC4)nc3C)n2)cc1 = 4.85
• COc1cccc(Nc2nccc(-c3sc(NC(=O)CCN4CCOCC4)nc3C)n2)c1 = 5.57
• Cc1nc(NC(=O)CCN)sc1-c1ccnc(Nc2cccc([N+](=O)[O-])c2)n1 = 6.24

input: // lookup pIC50 for CNc1nc(C)c(-c2ccnc(Nc3ccc(CCO)cc3)n2)s1
output: 6.96

---

Measured IC50 accompanies every entry in the list below.
Tested on: K562
protocol: 72-h MTT cytotoxicity assay K562
Format: cell-based
studyConditions: Homo sapiens, K562, 72 h; Table 5; Chronic myelogenous leukaemia
Write down the numeric answer in µM and omit the unit.

Consider the worked cases shown below.
• Cc1nc(NC(=O)[C@H](N)[C@@H](C)O)sc1-c1ccnc(Nc2cccc([N+](=O)[O-])c2)n1 [Compound 15] = 4.6
• CNc1nc(C)c(-c2ccnc(Nc3ccc(N4CCN(Cc5ccccc5)CC4)cc3)n2)s1 [Compound 11] = 2.1
• Cc1nc(N)sc1-c1ccnc(Nc2ccc(N3CCOCC3)cc2)n1 [Compound 1] = 3.8

Pending compound:
input: // lookup IC50 for CC[C@@H](N)C(=O)Nc1nc(C)c(-c2ccnc(Nc3cccc([N+](=O)[O-])c3)n2)s1 [Compound 16]
output: 2.5

---

Measured pIC50 accompanies every entry in the list below.
assaySystem: CDK2/cyclin E (Homo sapiens, UniProt P24941)
protocol: Kinase assay CDK2/cyclin E
Type: biochemical
studyConditions: Table 2; read-out: Kinase Inhibition IC50 CDK2 cyclin E
Just the number, please; pIC50 means minus log10 of the concentration in mol/L.

input: // lookup pIC50 for Cc1nc(C)c(-c2ccnc(Nc3ccc(NC(=O)Cn4cncn4)cc3)n2)s1
output: 6.36

input: // lookup pIC50 for Cc1nc(C)c(-c2ccnc(Nc3ccc(NC(=O)CN4CCOCC4)cc3)n2)s1
output: 5.77

input: // lookup pIC50 for CNc1nc(C)c(-c2ccnc(Nc3cccc(CNS(C)(=O)=O)c3)n2)s1
output: 7.60

---

System: SJSA-1
protocol: 72-h MTT cytotoxicity assay SJSA-1
Format: cell-based
studyConditions: Homo sapiens, SJSA-1, 72 h; Table 5; Osteogenic sarcoma
measurementKind: pIC50
Just the number, please; pIC50 means minus log10 of the concentration in mol/L.

• CC[C@@H](N)C(=O)Nc1nc(C)c(-c2ccnc(Nc3cccc([N+](=O)[O-])c3)n2)s1 [Compound 16] = 6.00
• CNc1nc(C)c(-c2ccnc(Nc3ccc(N4CCN(Cc5ccccc5)CC4)cc3)n2)s1 [Compound 11] = 5.37

input: // lookup pIC50 for Cc1nc(NC(=O)[C@H](N)[C@@H](C)O)sc1-c1ccnc(Nc2cccc([N+](=O)[O-])c2)n1 [Compound 15]
output: 5.72

---

assaySystem: PLK-1 (Homo sapiens)
Sequence (P53350 whole entry): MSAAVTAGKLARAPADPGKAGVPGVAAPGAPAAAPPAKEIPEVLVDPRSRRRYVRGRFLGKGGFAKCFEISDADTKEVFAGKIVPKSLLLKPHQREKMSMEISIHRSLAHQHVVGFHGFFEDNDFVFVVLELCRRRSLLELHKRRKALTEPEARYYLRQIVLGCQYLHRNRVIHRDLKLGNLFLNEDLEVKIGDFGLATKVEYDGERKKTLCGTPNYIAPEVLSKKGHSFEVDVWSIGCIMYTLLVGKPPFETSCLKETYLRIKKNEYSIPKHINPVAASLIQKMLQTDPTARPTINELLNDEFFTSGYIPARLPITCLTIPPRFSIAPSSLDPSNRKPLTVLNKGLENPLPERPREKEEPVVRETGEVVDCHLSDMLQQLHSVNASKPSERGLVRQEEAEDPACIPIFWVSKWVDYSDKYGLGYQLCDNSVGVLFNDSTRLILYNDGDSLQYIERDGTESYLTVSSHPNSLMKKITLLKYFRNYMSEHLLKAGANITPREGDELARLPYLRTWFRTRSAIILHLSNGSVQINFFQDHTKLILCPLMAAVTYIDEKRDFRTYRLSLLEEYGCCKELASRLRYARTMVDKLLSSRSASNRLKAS
protocol: Kinase assay PLK-1
Assay type: biochemical
studyConditions: Table 2; read-out: Kinase Inhibition IC50 PLK-1
Measured pIC50 accompanies every entry in the list below.
Just the number, please; pIC50 means minus log10 of the concentration in mol/L.

- CNc1nc(C)c(-c2ccnc(Nc3ccc(N4CCN(Cc5ccccc5)CC4)cc3)n2)s1: 4.72
- Cc1nc(C)c(-c2ccnc(Nc3ccc(N4CCNCC4)cc3)n2)s1: 4.89
- Cc1nc(NC(=O)CCN2CCN(C)CC2)sc1-c1ccnc(Nc2cccc([N+](=O)[O-])c2)n1: 4.62
- CNc1nc(C)c(-c2ccnc(Nc3cccc(CNC(C)=O)c3)n2)s1: 4.34

input: // lookup pIC50 for CCNc1nc(C)c(-c2ccnc(Nc3cccc(CNC(C)=O)c3)n2)s1
output: 4.74

input: // lookup pIC50 for Cc1nc(C)c(-c2ccnc(Nc3ccc(N4CCN(C)CC4)cc3)n2)s1
output: 4.26

input: // lookup pIC50 for CC(=O)N1CCN(c2ccc(Nc3nccc(-c4sc(C)nc4C)n3)cc2)CC1
output: 4.46
